- Target Entity: LRRK2 WT (Homo sapiens (Human), UniProt Q5S007)
- Sequence (Q5S007 970-2527): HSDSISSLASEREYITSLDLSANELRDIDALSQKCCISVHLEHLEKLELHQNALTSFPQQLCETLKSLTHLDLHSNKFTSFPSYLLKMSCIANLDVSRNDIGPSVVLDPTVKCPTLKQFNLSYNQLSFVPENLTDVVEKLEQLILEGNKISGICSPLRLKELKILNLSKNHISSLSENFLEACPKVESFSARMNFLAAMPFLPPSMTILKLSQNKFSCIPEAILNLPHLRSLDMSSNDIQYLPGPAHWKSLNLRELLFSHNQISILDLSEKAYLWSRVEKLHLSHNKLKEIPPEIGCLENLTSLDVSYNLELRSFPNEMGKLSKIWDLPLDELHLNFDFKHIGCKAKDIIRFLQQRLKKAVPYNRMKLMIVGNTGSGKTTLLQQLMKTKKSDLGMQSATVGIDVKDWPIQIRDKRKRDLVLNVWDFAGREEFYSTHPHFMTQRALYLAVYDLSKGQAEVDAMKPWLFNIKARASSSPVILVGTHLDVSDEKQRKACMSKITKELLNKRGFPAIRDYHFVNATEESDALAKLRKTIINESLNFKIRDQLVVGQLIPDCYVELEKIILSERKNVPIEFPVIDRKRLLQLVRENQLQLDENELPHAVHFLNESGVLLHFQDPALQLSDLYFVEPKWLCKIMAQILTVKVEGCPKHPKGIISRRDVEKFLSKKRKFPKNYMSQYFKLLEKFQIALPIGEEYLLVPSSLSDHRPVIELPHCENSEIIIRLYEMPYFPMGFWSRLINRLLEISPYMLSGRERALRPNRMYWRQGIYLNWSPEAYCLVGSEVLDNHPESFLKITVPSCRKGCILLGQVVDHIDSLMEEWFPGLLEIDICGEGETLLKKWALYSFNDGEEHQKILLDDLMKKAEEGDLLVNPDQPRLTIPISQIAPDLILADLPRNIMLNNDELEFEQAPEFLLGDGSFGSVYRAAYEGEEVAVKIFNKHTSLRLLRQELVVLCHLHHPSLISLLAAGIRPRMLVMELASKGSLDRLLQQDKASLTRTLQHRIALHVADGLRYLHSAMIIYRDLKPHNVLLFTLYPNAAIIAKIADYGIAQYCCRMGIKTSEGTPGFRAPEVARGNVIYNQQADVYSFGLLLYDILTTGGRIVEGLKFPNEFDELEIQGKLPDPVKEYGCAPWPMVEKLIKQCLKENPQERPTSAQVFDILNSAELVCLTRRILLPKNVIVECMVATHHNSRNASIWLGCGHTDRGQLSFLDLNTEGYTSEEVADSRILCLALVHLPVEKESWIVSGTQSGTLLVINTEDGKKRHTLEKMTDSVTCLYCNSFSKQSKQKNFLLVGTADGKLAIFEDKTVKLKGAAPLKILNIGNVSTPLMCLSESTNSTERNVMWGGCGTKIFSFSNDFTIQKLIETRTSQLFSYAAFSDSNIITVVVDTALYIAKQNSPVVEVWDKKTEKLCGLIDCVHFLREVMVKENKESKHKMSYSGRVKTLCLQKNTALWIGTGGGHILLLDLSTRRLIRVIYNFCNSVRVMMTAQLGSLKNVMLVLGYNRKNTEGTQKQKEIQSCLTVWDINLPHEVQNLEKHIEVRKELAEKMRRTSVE
- Assay Protocol: LRRK2 wild-type kinase activity assay (LanthaScreen TR-FRET)
- Type: biochemical
- Reported Conditions: 1 nM LRRK2 WT kinase, 1.3 mM ATP, 0.4 μM fluorescein-LRRKtide
- Procedure: LRRK2 Wild-Type and G2019S Kinase Activity Assay. LRRK2 kinase activity is measured using a LanthaScreen kinase activity assay available from Invitrogen (Life Technologies Corporation). […] The phosphorylated peptide is recognized by a terbium-labelled phospho-specific anti-LRRKtide antibody and, subsequently, the phosphorylated LRRKtide can be quantified by the extent of TR-FRET between the terbium donor and fluorescein acceptor. […]
Below is a list of entries, each paired with its recorded IC50 value.
Endpoint: IC50 (nM)

Molecule	Target Entity	Endpoint	Output Unit	Measurement
COc1cccc(-c2cnc(N)c(-c3nnc(C4CCNCC4)o3)c2)c1 [Example 7]	LRRK2 WT (Homo sapiens (Human), UniProt Q5S007)	IC50	nM	3300
CC(C)n1cc(-c2cc(-c3ccc4c(ccn4C)c3)cnc2N)nn1 [Example 9]	LRRK2 WT (Homo sapiens (Human), UniProt Q5S007)	IC50	nM	550
CC(C)n1cc(-c2cc(-c3ccc(N4CCOCC4)cc3)cnc2N)nn1 [Example 13]	LRRK2 WT (Homo sapiens (Human), UniProt Q5S007)	IC50	nM	340
CC(C)n1cc(-c2cc(-c3ccc(CN4CCOCC4)c(Cl)c3)cnc2N)nn1 [Example 23]	LRRK2 WT (Homo sapiens (Human), UniProt Q5S007)	IC50	nM	320
CC(C)n1cc(-c2cc(-c3ccc(CN4CCOCC4)cc3)cnc2N)nn1 [Example 12]	LRRK2 WT (Homo sapiens (Human), UniProt Q5S007)	IC50	nM	300

* * *

- Target Entity: LRRK2 WT (Homo sapiens (Human))
- Assay Protocol: LRRK2 wild-type kinase activity assay (LanthaScreen TR-FRET)
- Assay type: biochemical
- Reported Conditions: 1 nM LRRK2 WT kinase, 1.3 mM ATP, 0.4 μM fluorescein-LRRKtide
pIC50: −log10 of the molar value.
Threshold rule: pIC50 greater than or equal to 6 is T; below that, F.

Given Smiles	Classification
CC(C)n1cc(-c2cc(-c3ccc(CCN4CCOCC4)cc3)cnc2N)nn1	T
Nc1ncc(-c2ccc3[nH]ccc3c2)cc1-c1nnc(C2CC2)o1	T
Nc1ncc(-c2ccc(CN3CCOCC3)cc2)cc1-c1nnc(C2CC2)o1	T
Cc1cc(-c2cnc(N)c(-c3cn(C(C)C)nn3)c2)ccc1CN1CCOCC1	T
COc1cccc(-c2cnc(N)c(-c3nnc(C4CCN(C)CC4)o3)c2)c1	F
CC(C)n1cc(-c2cc(-c3cccc(CN4CCOCC4)c3)cnc2N)nn1	T
Cc1ccc(-c2cnc(N)c(-c3nnc(C4CCN(C)CC4)o3)c2)cc1	F
CC(C)n1cc(-c2cc(-c3cccc(C(=O)N4CCOCC4)c3)cnc2N)nn1	T
CC(C)n1cc(-c2cc(-c3ccc(CN4CCOCC4)c(F)c3)cnc2N)nn1	T

* * *

Below is a list of entries, each paired with its recorded log10(IC50) value.
- Target Entity: LRRK2 G2019S (Homo sapiens (Human), UniProt Q5S007, G2019S)
- Sequence (Q5S007 970-2527 G2019S): as the sequence (Q5S007 970-2527) above, with G1050S counted along it
- Assay Protocol: LRRK2 G2019S kinase activity assay (LanthaScreen TR-FRET)
- Reported Conditions: 250 pM LRRK2 G2019S kinase, 1.3 mM ATP, 0.4 μM fluorescein-LRRKtide
Endpoint: log10(IC50) (log10 of the value in nM)

Compound	log10(IC50)
Nc1ncc(-c2ccc3[nH]ccc3c2)cc1-c1nnc(C2CC2)o1 [Example 2]	3.00
CN1CCc2cc(-c3cnc(N)c(-c4nnc(C5CC5)o4)c3)ccc21 [Example 3]	2.85
CC(C)n1cc(-c2cc(-c3ccc(CCN4CCOCC4)cc3)cnc2N)nn1 [Example 14]	2.53
CC(C)n1cc(-c2cc(-c3ccc(CN4CCOCC4)c(F)c3)cnc2N)nn1 [Example 15]	2.57
COc1cccc(-c2cnc(N)c(-c3nnc(C4CCN(C)CC4)o3)c2)c1 [Example 8]	2.94
CC(C)n1cc(-c2cc(-c3cccc(C(=O)N4CCOCC4)c3)cnc2N)nn1 [Example 25]	2.98
CC(C)n1cc(-c2nc(-c3ccc4c(c3)CCN4C)cnc2N)nn1 [Example 11]	2.53
CC(C)n1cc(-c2cc(-c3ccc4c(c3)CCN4C)cnc2N)nn1 [Example 10]	2.54
COc1cc(-c2cnc(N)c(-c3cn(C(C)C)nn3)c2)ccc1C(=O)N1CCOCC1 [Example 17]	1.98
CC(C)c1nnc(-c2cc(-c3ccc4[nH]ccc4c3)cnc2N)o1 [Example 1]	2.96
CC(C)n1cc(-c2cc(-c3ccc(C(=O)N4CCOCC4)cc3)cnc2N)nn1 [Example 28]	2.63
Cc1cc(-c2cnc(N)c(-c3cn(C(C)C)nn3)c2)ccc1C(=O)N1CCOCC1 [Example 20]	2.04
CC(C)n1cc(-c2cc(-c3ccc(C(=O)N4CCOCC4)c(Cl)c3)cnc2N)nn1 [Example 22]	2.46
Cc1ccc(-c2cnc(N)c(-c3nnc(C4CCN(C)CC4)o3)c2)cc1 [Example 4]	2.93
CN1CCc2cc(-c3cnc(N)c(-c4nnc(C5CCNCC5)o4)c3)ccc21 [Example 5]	2.58
CC(C)n1cc(-c2cc(-c3ccc(CC(=O)N4CCOCC4)cc3)cnc2N)nn1 [Example 30]	2.72
CC(C)n1cc(-c2cc(-c3ccc4c(ccn4C)c3)cnc2N)nn1 [Example 9]	2.73
CC(C)n1cc(-c2cc(-c3cc(Cl)cc(C(=O)N4CCOCC4)c3)cnc2N)nn1 [Example 26]	2.84
CC(C)n1cc(-c2cc(-c3ccc(CN4CCOCC4)c(Cl)c3)cnc2N)nn1 [Example 23]	2.34
